Each recorded value in this set is attributed to ChEMBL document CHEMBL1130634.

- Target Entity: Phosphodiesterase 4 (Rattus norvegicus, UniProt P14270+P14646+P14644+P54748)
- Test Name: Evaluated for the inhibition of [3H]rolipram binding to membrane-bound PDE4.
Field 'label' (enum: satisfied / not satisfied). Set to satisfied when IC50 is strictly under 40 nM; else not satisfied.

[Q] Is IC50 strictly under 40 nM for the entry COc1nc(-c2cc(OCC3CC3)cc(OCC3CC3)c2)c2cc(OC)c(OCCO)cc2n1 ?
[A] not satisfied

[Q] hey, is IC50 for COc1cc2c(-c3cc(OCC4CC4)cc(OCC4CC4)c3)nc(OCCCO)nc2cc1OCCO lower than 40 nM or not?
[A] not satisfied

[Q] Does the reported IC50 of COc1cc2c(-c3cc(OCC4CC4)cc(OCC4CC4)c3)nc(NCCCO)nc2cc1OCCO stay below 40 nM?
[A] not satisfied

[Q] Quick check: does CCc1nc(-c2cc(OCC3CC3)cc(OCC3CC3)c2)c2cc(OC)c(OCCO)cc2n1 have IC50 under 40 nM?
[A] satisfied

[Q] Hi there! Is IC50 for CCOc1nc(-c2cc(OCC3CC3)cc(OCC3CC3)c2)c2cc(OC)c(OCCO)cc2n1 below 40 nM, do you know?
[A] not satisfied
